- Test system: OS-RC-2 (Kidney Carcinoma)
- Test protocol: Bliss excess, mean over the matrix (fraction); higher = more synergy;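 further: after 72 h of two-drug dosing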
Observation type: Bliss excess
Answer with the value's number alone.

CN(CCO)CC[C@H](CSc1ccccc1)Nc1ccc(S(=O)(=O)NC(=O)c2ccc(N3CCC([C@@H](O)c4ccccc4-c4ccc(Cl)cc4)CC3)cc2)cc1S(=O)(=O)C(F)(F)F [AZD4320] + Cn1cnc2c(F)c(Nc3ccc(Br)cc3Cl)c(C(=O)NOCCO)cc21 [Selumetinib] (first compound max 1 µM, 7x7, partner max 3 µM) ... 0.0178
Cc1c2c(nn1C)CSCc1cc(n(C)n1)CSc1cc(c3ccccc3c1)OCCCc1c(C(=O)O)n(C)c3c-2c(Cl)ccc13 [AZD5991] + CCN(CCO)CCCOc1ccc2c(Nc3cc(CC(=O)Nc4cccc(F)c4)[nH]n3)ncnc2c1 [AZD2811] (first compound max 1 µM, 7x7, partner max 1 µM) ... -0.0634
COc1nnc2ccc(N3CCC(c4ccc(OCCN5CCN(C)C(=O)[C@H]5C)cc4)CC3)nn12 [AZD5153] + C[C@@H]1COCCN1C2=NC(=NC(=C2)C3(CC3)[S@](=N)(=O)C)C4=C5C=CNC5=NC=C4 [AZD6738] (first compound max 1 µM, 7x7, partner max 10 µM) ... 0.0699

Below: the item to evaluate.
Can you look up the measured Bliss excess of CC1(C)CCC(CN2CCN(c3ccc(C(=O)NS(=O)(=O)c4ccc(NCC5CCOCC5)c([N+](=O)[O-])c4)c(Oc4cnc5[nH]ccc5c4)c3)CC2)=C(c2ccc(Cl)cc2)C1 [Venetoclax] + C[C@@H]1COCCN1C2=NC(=NC(=C2)C3(CC3)[S@](=N)(=O)C)C4=C5C=CNC5=NC=C4 [AZD6738] (first compound max 1 µM, 7x7, partner max 10 µM) for me?
-0.0804

---

- Test system: A549 (Lung Adenocarcinoma)
- Test protocol: Bliss excess, mean over the matrix (fraction); higher = more synergy
Mark yes for reported Bliss excess of -0.04 or greater; mark no for anything smaller.

Answered cases to consult:
CC1(C)CCC(CN2CCN(c3ccc(C(=O)NS(=O)(=O)c4ccc(NCC5CCOCC5)c([N+](=O)[O-])c4)c(Oc4cnc5[nH]ccc5c4)c3)CC2)=C(c2ccc(Cl)cc2)C1 [Venetoclax] + C=CCn1c(=O)c2cnc(Nc3ccc(N4CCN(C)CC4)cc3)nc2n1-c1cccc(C(C)(C)O)n1 [AZD1775] (first compound max 1 µM, partner max 1 µM) ... yes
COc1nnc2ccc(N3CCC(c4ccc(OCCN5CCN(C)C(=O)[C@H]5C)cc4)CC3)nn12 [AZD5153] + CN(CC[C@H](CSC1=CC=CC=C1)NC2=C(C=C(C=C2)S(=O)(=O)NC(=O)C3=CC=C(C=C3)N4CCC(CC4)[C@H](C5=CC=CC=C5C6=CC=C(C=C6)Cl)O)S(=O)(=O)C(F)(F)F)CCO [AZD4320] (first compound max 1 µM, 7x7, partner max 1 µM) ... yes
NC1(C(=O)N[C@@H](CCO)c2ccc(Cl)cc2)CCN(c2ncnc3[nH]ccc23)CC1 [Capivasertib] + CC(=O)c1c(C)c2cnc(Nc3ccc(N4CCNCC4)cn3)nc2n(C2CCCC2)c1=O [Palbociclib] (first compound max 10 µM, 7x7, partner max 10 µM) ... no
COc1cccc(OCCCN)c1-c1cc(Nc2cnc(C#N)cn2)n[nH]1 [Prexasertib] + C=CCn1c(=O)c2cnc(Nc3ccc(N4CCN(C)CC4)cc3)nc2n1-c1cccc(C(C)(C)O)n1 [AZD1775] (first compound max 1 µM, partner max 1 µM) ... yes

Dear colleague, could you confirm whether Cn1cnc2c(F)c(Nc3ccc(Br)cc3Cl)c(C(=O)NOCCO)cc21 [Selumetinib] + C[C@@H]1COCCN1C2=NC(=NC(=C2)C3(CC3)[S@](=N)(=O)C)C4=C5C=CNC5=NC=C4 [AZD6738] (first compound max 10 µM, 7x7, partner max 10 µM) has Bliss excess at or above -0.04?
yes

Reported Bliss excess at or above -0.04? COc1cccc(OCCCN)c1-c1cc(Nc2cnc(C#N)cn2)n[nH]1 [Prexasertib] + CN(C)CCCOc1ccc(-c2ccc3ncc4c(c3c2)n(C2CCOCC2)c(=O)n4C)cn1 [AZD0156] (first compound max 1 µM, 7x7, partner max 1 µM)
yes

Exam item: decide whether the reported Bliss excess for CS(=O)(=O)CCNCc1ccc(-c2ccc3ncnc(Nc4ccc(OCc5cccc(F)c5)c(Cl)c4)c3c2)o1 [Lapatinib] + C[C@@H](Oc1cc(-c2cnn(C3CCNCC3)c2)cnc1N)c1c(Cl)ccc(F)c1Cl [Crizotinib] (first compound max 10 µM, 7x7, partner max 10 µM) is at least -0.04.
no

Could you please find out whether COc1nnc2ccc(N3CCC(c4ccc(OCCN5CCN(C)C(=O)[C@H]5C)cc4)CC3)nn12 [AZD5153] + CC1(C)CCC(CN2CCN(c3ccc(C(=O)NS(=O)(=O)c4ccc(NCC5CCOCC5)c([N+](=O)[O-])c4)c(Oc4cnc5[nH]ccc5c4)c3)CC2)=C(c2ccc(Cl)cc2)C1 [Venetoclax] (first compound max 1 µM, 7x7, partner max 1 µM) has Bliss excess that meets -0.04 or exceeds it?
no

Hi, just wondering whether CN(C)CCCOc1ccc(-c2ccc3ncc4c(c3c2)n(C2CCOCC2)c(=O)n4C)cn1 [AZD0156] + CCN(CCO)CCCOc1ccc2c(Nc3cc(CC(=O)Nc4cccc(F)c4)[nH]n3)ncnc2c1 [AZD2811] (first compound max 1 µM, 7x7, partner max 1 µM) shows Bliss excess of -0.04 or higher.
no

Kindly determine if Bliss excess recorded for CN(C)CCCOc1ccc(-c2ccc3ncc4c(c3c2)n(C2CCOCC2)c(=O)n4C)cn1 [AZD0156] + O=C(c1cc(Cc2n[nH]c(=O)c3ccccc23)ccc1F)N1CCN(C(=O)C2CC2)CC1 [Olaparib] (first compound max 3 µM, partner max 3 µM) is above or exactly -0.04.
yes

Has C=CCn1c(=O)c2cnc(Nc3ccc(N4CCN(C)CC4)cc3)nc2n1-c1cccc(C(C)(C)O)n1 [AZD1775] + O=C(c1cc(Cc2n[nH]c(=O)c3ccccc23)ccc1F)N1CCN(C(=O)C2CC2)CC1 [Olaparib] (first compound max 1 µM, partner max 10 µM) a recorded Bliss excess greater than or equal to -0.04?
no

---

- Tested on: GI-ME-N (Neuroblastoma)
- Test protocol: Bliss excess, mean over the matrix (fraction); higher = more synergy
Param threshold (0.03) applies to Bliss excess; output criterion met when value >= threshold, criterion not met when value < threshold.

Worked examples, 6 molecules total:
COc1cccc(OCCCN)c1-c1cc(Nc2cnc(C#N)cn2)n[nH]1 [Prexasertib] + C=CCn1c(=O)c2cnc(Nc3ccc(N4CCN(C)CC4)cc3)nc2n1-c1cccc(C(C)(C)O)n1 [AZD1775] (first compound max 1 µM, partner max 1 µM) ... criterion not met
CCc1c2c(nc3ccc(O)cc13)-c1cc3c(c(=O)n1C2)COC(=O)[C@]3(O)CC [SN-38] + CN(C)CCCOc1ccc(-c2ccc3ncc4c(c3c2)n(C2CCOCC2)c(=O)n4C)cn1 [AZD0156] (first compound max 0.3 µM, 7x7, partner max 1 µM) ... criterion not met
COc1nnc2ccc(N3CCC(c4ccc(OCCN5CCN(C)C(=O)[C@H]5C)cc4)CC3)nn12 [AZD5153] + C[C@@H]1COCCN1C2=NC(=NC(=C2)C3(CC3)[S@](=N)(=O)C)C4=C5C=CNC5=NC=C4 [AZD6738] (first compound max 1 µM, 7x7, partner max 10 µM) ... criterion met
COc1cccc(OCCCN)c1-c1cc(Nc2cnc(C#N)cn2)n[nH]1 [Prexasertib] + C[C@@H]1COCCN1C2=NC(=NC(=C2)C3(CC3)[S@](=N)(=O)C)C4=C5C=CNC5=NC=C4 [AZD6738] (first compound max 1 µM, 7x7, partner max 10 µM) ... criterion met
C=CCn1c(=O)c2cnc(Nc3ccc(N4CCN(C)CC4)cc3)nc2n1-c1cccc(C(C)(C)O)n1 [AZD1775] + C1CN(CCC1(C(=O)N[C@@H](CCO)C2=CC=C(C=C2)Cl)N)C3=NC=NC4=C3C=CN4 [Capivasertib] (first compound max 3 µM, partner max 3 µM) ... criterion not met
Cc1cc2ncnn2cc1Nc1ncc2c(n1)n(C1CCOCC1)c(=O)n2C [AZD7648] + C[C@@H]1COCCN1C2=NC(=NC(=C2)C3(CC3)[S@](=N)(=O)C)C4=C5C=CNC5=NC=C4 [AZD6738] (first compound max 10 µM, 7x7, partner max 10 µM) ... criterion met

Here is the next item to consider.
Would you say Cc1c2c(nn1C)CSCc1cc(n(C)n1)CSc1cc(c3ccccc3c1)OCCCc1c(C(=O)O)n(C)c3c-2c(Cl)ccc13 [AZD5991] + C1CN(CCC1(C(=O)N[C@@H](CCO)C2=CC=C(C=C2)Cl)N)C3=NC=NC4=C3C=CN4 [Capivasertib] (first compound max 1 µM, 7x7, partner max 3 µM) shows Bliss excess at minimum 0.03?
criterion not met
